The reported numbers originate from patent US7781421B2.

Recorded Gating (10 μM), ratio of compound only current/2 μM GABA current by entry
- experimental-system: rat α1β2γ2 GABAA Receptor (Rattus norvegicus, UniProt P18508+P62813+P63138, INS375LLRMFSFK)
- Construct: from linearized pBluescript vectors containing receptor coding regions; expressed in transfected cells; host or cells: Xenopus laevis oocytes injected with in vitro transcribed capped mRNA
- Sequence (P62813 28-455, stated change not applied): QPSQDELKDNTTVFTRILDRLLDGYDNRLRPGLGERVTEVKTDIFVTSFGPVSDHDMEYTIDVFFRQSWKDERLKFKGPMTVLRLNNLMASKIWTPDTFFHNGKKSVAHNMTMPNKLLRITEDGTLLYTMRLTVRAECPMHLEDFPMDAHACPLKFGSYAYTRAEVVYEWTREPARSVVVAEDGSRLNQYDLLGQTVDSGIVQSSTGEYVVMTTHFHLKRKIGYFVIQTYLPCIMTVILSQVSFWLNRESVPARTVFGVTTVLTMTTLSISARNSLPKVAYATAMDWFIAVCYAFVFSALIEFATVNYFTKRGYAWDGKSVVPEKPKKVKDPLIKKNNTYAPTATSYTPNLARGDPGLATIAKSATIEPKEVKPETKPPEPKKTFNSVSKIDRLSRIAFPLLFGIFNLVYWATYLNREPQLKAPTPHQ
- Sequence (P63138 26-474, stated change not applied): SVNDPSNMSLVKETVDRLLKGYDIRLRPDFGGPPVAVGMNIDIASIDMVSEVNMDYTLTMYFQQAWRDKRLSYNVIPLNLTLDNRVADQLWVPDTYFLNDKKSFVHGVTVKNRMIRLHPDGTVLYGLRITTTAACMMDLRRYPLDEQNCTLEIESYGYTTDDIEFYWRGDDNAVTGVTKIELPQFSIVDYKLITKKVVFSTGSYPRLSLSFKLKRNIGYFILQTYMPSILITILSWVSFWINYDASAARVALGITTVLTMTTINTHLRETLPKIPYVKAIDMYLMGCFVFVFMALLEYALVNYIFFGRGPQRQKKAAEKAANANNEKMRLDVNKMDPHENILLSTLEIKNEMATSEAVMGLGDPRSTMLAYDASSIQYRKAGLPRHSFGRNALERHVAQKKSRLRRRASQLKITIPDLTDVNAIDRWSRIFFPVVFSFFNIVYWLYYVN
- Sequence (P18508 with tags, fused parts or gaps INS375LLRMFSFK): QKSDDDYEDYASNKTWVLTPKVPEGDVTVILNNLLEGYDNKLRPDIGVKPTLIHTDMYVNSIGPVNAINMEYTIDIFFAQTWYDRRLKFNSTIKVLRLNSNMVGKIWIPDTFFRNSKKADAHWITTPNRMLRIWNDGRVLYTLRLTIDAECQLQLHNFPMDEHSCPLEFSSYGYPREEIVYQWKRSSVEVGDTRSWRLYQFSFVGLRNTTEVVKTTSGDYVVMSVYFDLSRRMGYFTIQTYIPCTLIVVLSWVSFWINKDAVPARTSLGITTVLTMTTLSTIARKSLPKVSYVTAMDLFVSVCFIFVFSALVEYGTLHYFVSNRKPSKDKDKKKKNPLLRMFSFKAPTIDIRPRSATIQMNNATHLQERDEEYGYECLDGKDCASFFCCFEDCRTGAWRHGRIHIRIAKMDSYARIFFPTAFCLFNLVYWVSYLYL
- test: Xenopus oocyte two-electrode voltage-clamp electrophysiology
- Type: cell-based
- experimental-setup: direct current gated by 10 μM compound in the absence of GABA
assay-endpoint: Gating (10 μM), ratio of compound only current/2 μM GABA current

compound | test-result
CC12CCC(O)CC1CCC1C2CCC23CCCC(=CC#N)C2CCC13 (centres unmarked) [Compound 64] | 0.03
CC12CCC(O)CC1CCC1C2CCC23C(=O)C=CCC2CCC13 (centres unmarked) [Compound 35a] | 0.07
C[C@]12CC[C@@H](O)C[C@@H]1CCC1C3CC[C@@H]4C(C#N)=CCC[C@]34CCC12 (some centres unmarked) [Compound 57] | 0.01
CC(=O)C1CCCC23CCC4C(CCC5CC(O)CCC54C)C2CCC13 (centres unmarked) [Compound 80] | 0.01
CC12CCC(O)CC1CCC1C2CCC23C(=O)CCCC2CCC13 (centres unmarked) [Compound 5b] | 0.04
C[C@]12CC[C@@H](O)C[C@H]1CCC1C3CCC4CCC(=O)C[C@@]43CCC12 (some centres unmarked) [Compound 4b] | 0.01
C[C@]12CC[C@@H](O)C[C@@H]1CCC1C3CC[C@@H]4C[C@@H](C#N)CC[C@]34CCC12 (some centres unmarked) [Compound 44] | 0.03
CC12CCC(O)CC1CCC1C2CCC23CC(=O)C=CC2CCC13 (centres unmarked) [Compound 22c] | −0.02
